Hey, just so you know, these numbers are from patent US20080044491A1.

method: Compatibility of nanocrystalline silver with excipients
Assay type: physicochemical
condition.description: 10% aqueous solution of excipient with nanocrystalline silver, glass vial, 40° C. overnight

{"compound": "CCCCCCCCCCCCCCCCCC(=O)OCC(O)CO (stereo not drawn) [Glycerol monostearate]", "Reaction with nanocrystalline silver": "Brown discoloration"}
{"compound": "COC(=O)c1ccc(O)cc1 [Methylparaben]", "Reaction with nanocrystalline silver": "Brown discoloration"}
